B1: GA-binding protein alpha chain, residues 172 to 250; numbered along this chain, Q06546 (parent)
chain: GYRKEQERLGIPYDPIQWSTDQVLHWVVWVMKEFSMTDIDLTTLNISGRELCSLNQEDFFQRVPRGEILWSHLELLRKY

Variants of: B1
EXPERIMENT_NOTES: abundance fitness (aPCA) (normalised: wild type 0, dead -1); higher = more abundant; growth selection in yeast, the domain comes from the species named
STUDY_CONDITIONS: Homo sapiens
Each entry below lists one item and its recorded abundance fitness value.

SEQUENCE_DATA: GYRKEQERLGIPYDPIQWSTDQVLHWVVWVMKEFNMTDIDLTTLNISGRELCSLNQEDFFQRVPRGEILWSHLELLRKY [S35N]
abundance fitness: -0.009
//
SEQUENCE_DATA: GYRKEQERLGIPYDPIQWSTDQVLHWVVWVMKEFSMTDIDLTTLNISGRELQSLNQEDFFQRVPRGEILWSHLELLRKY [C52Q]
abundance fitness: -0.615
//
SEQUENCE_DATA: GYRKEQERLGIPYDPIQWSTDQVLHWVVWVMKEFSMTDIDSTTLNISGRELCSLNQEDFFQRVPRGEILWSHLELLRKY [L41S]
abundance fitness: -0.127
//
SEQUENCE_DATA: GYRKEQERLGIPYDPIQWSTDQVLHWVVWVMKEFSMTDIDLTTLEISGRELCSLNQEDFFQRVPRGEILWSHLELLRKY [N45E]
abundance fitness: -0.039
//
SEQUENCE_DATA: GYRKEQERLEIPYDPIQWSTDQVLHWVVWVMKEFSMTDIDLTTLNISGRELCSLNQEDFFQRVPRGEILWSHLELLRKY [G10E]
abundance fitness: -0.096
//
SEQUENCE_DATA: GYRKEQERLGIPYDPIQWSTDQVLHWVVWVMKEFSMTDIDLTTLNISGRELCSLNQEDFFQRVPRGEILQSHLELLRKY [W70Q]
abundance fitness: -0.875
//
SEQUENCE_DATA: GYRKEQERLGIPYDPIQWSTDQVLHWVVWMMKEFSMTDIDLTTLNISGRELCSLNQEDFFQRVPRGEILWSHLELLRKY [V30M]
abundance fitness: -0.042
//
SEQUENCE_DATA: GYRKEQERLGIPYDPIQWSTDNVLHWVVWVMKEFSMTDIDLTTLNISGRELCSLNQEDFFQRVPRGEILWSHLELLRKY [Q22N]
abundance fitness: -0.039
//
SEQUENCE_DATA: GYRKEQERLGIPYDPIQWSTDQVDHWVVWVMKEFSMTDIDLTTLNISGRELCSLNQEDFFQRVPRGEILWSHLELLRKY [L24D]
abundance fitness: -0.171
//
SEQUENCE_DATA: GYRKEQERLGIPYDPIQWSTDQVLHWVVWVMKEFSMTDIDLTVLNISGRELCSLNQEDFFQRVPRGEILWSHLELLRKY [T43V]
abundance fitness: -0.065
//
SEQUENCE_DATA: GYRKEQERLGIPYDPIQWSTDQVLHEVVWVMKEFSMTDIDLTTLNISGRELCSLNQEDFFQRVPRGEILWSHLELLRKY [W26E]
abundance fitness: -1
//
SEQUENCE_DATA: GYRKEQERLGIPYDPIQWSTDQVLHWVVWVMKEFSMTDIDLTTLNISGRELCSLNQSDFFQRVPRGEILWSHLELLRKY [E57S]
abundance fitness: -0.051
//
SEQUENCE_DATA: GYRKEQERLGIPYDPIQWSTDQVLAWVVWVMKEFSMTDIDLTTLNISGRELCSLNQEDFFQRVPRGEILWSHLELLRKY [H25A]
abundance fitness: -0.25
//
SEQUENCE_DATA: GYRKEQERLGIPYDPIQWSTDQVLHWVVWVMKEFSMTDIDLTTLMISGRELCSLNQEDFFQRVPRGEILWSHLELLRKY [N45M]
abundance fitness: -0.054
//
SEQUENCE_DATA: GYRKEQERLGIPYDPIQWSTDQVLHWVVYVMKEFSMTDIDLTTLNISGRELCSLNQEDFFQRVPRGEILWSHLELLRKY [W29Y]
abundance fitness: -0.106
//
SEQUENCE_DATA: GYRKEQERLGIPYDPIQWSTDQVLHWVVWVMKEFSMTDIDLTTLNISGTELCSLNQEDFFQRVPRGEILWSHLELLRKY [R49T]
abundance fitness: -0.085
//
SEQUENCE_DATA: GYRKEQERLGIPYDPIQWSTDQVLHWVVWVMKEFSMTDIDLTTLNISGRELCSLNQEDFFQRVPRGEILWSHLELPRKY [L76P]
abundance fitness: -0.727
//
SEQUENCE_DATA: GYRKEQERLGIPYDPIQWSTDQVLHWVVWVMKEFSMTDIDLTTLNISGRELCSLNQEDFFQRVPRGEILWSHLELKRKY [L76K]
abundance fitness: -0.876
//
SEQUENCE_DATA: GYRKEQERLGIPYDPIQWSTDQVLHWVVWVMKEFSMTDIDLTTLNISGRELCSLNQEDFFQRVPRGEHLWSHLELLRKY [I68H]
abundance fitness: -0.095
//
SEQUENCE_DATA: GYRKEQERLGISYDPIQWSTDQVLHWVVWVMKEFSMTDIDLTTLNISGRELCSLNQEDFFQRVPRGEILWSHLELLRKY [P12S]
abundance fitness: -0.229
//
SEQUENCE_DATA: GYRKEQEMLGIPYDPIQWSTDQVLHWVVWVMKEFSMTDIDLTTLNISGRELCSLNQEDFFQRVPRGEILWSHLELLRKY [R8M]
abundance fitness: -0.133
//
SEQUENCE_DATA: GYRKEQERLGIPYDPIQWSTIQVLHWVVWVMKEFSMTDIDLTTLNISGRELCSLNQEDFFQRVPRGEILWSHLELLRKY [D21I]
abundance fitness: -0.36
